target: Prostaglandin G/H synthase 2 (Homo sapiens, UniProt P35354)
Sequence (P35354 whole entry): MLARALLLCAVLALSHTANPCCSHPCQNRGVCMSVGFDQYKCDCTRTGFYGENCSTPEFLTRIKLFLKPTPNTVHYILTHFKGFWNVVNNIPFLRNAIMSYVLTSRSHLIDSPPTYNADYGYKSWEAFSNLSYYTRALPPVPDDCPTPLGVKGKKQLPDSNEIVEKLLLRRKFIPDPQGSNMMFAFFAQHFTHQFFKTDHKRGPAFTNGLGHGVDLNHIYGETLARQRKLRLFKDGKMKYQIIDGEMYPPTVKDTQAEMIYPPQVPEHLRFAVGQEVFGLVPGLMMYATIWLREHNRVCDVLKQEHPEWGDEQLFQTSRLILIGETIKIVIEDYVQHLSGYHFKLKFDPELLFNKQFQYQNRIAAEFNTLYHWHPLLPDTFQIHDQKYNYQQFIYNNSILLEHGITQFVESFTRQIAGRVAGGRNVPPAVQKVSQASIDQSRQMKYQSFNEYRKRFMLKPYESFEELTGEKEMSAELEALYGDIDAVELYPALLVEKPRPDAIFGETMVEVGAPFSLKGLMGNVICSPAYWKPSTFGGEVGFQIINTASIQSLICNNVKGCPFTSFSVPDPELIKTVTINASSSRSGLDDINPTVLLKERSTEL
// note: log10(IC50) values for Prostaglandin G/H synthase 2 (Homo sapiens, UniProt P35354) were reported in different studies
parameterMeasured: log10(IC50) (log10 of the value in µM)

>>> testresult("COc1ccc(/C=C/c2cc(OC)cc(OC)c2/C=C/C(=O)NCc2ccco2)cc1")
0.99
>>> testresult("CCCCCCCCNC(=O)c1ccccc1Nc1c(Cl)ccc(C)c1Cl")
-1.22
>>> testresult("Cc1cccc(C2CC(c3ccc(Cl)c(Cl)c3)=NN2C2=NC(=O)CS2)c1 (stereo not given)")
0.86
>>> testresult("Cc1ncccc1Nc1ccccc1C(=O)NCCc1c[nH]c2ccccc12")
0.29
>>> testresult("O=C(NCCc1ccccc1)c1sc2ccccc2c1Br")
1.25
>>> testresult("CCCCC(=O)c1cc(C(C)(C)C)c2c(c1)C(C)(C)CO2")
-1.40
>>> testresult("COc1ccc(-c2cc(C(=O)N3CCOCC3)nn2-c2ccc(S(N)(=O)=O)cc2)cc1")
0.30
>>> testresult("CCSc1ccc(-c2cc(Cl)cc3c2OC(C(F)(F)F)C(C(=O)O)=C3)cc1 (stereo not given)")
-0.62
